- system.tested: TMPRSS2 (transmembrane serine protease 2) (Homo sapiens)
- Construct: Recombinant human TMPRSS2 (106-492aa, 6xHisTag)
- Sequence (O15393 106-492): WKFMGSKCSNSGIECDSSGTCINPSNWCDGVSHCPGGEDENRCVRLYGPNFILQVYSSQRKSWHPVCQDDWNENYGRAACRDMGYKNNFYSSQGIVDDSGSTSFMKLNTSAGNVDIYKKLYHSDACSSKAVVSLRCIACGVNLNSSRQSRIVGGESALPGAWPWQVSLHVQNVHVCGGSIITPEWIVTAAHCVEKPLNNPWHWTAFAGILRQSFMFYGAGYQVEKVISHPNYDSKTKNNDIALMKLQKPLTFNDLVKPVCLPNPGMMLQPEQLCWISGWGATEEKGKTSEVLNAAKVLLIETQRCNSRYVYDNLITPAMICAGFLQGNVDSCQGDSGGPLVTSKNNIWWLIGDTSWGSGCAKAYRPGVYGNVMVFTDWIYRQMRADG
- protocol.summary: microscale thermophoresis (His-tag RED-tris-NTA labelled protein, […])
quantity: Kd (µM)
Write down the numeric answer in µM and omit the unit.

Lookup result for CN(Cc1cc(Br)cc(Br)c1N)C1CCCCC1 [BH, bromhexine] ; measured Kd: 24
